meta.source: patent US20260102485A1

- ASSAYED SYSTEM: T1, human TL1A (hTL1A) antigen (human, UniProt O95150 58-251, limits assumed)
- T1 construct: also called TNFSF15
- T1 sequence (looked up): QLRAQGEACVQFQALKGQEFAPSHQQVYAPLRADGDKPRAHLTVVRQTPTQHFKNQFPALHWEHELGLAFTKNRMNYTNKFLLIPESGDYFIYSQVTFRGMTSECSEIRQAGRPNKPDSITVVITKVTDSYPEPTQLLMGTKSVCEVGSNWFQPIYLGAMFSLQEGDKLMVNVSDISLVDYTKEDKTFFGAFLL
- TEST: SPR, affinity ranking, clone as ligand
Quick reference: Kd of the listed items.
OUTCOME MEASURE: Kd (nM)

INSERT INTO assay_data (binder, observed_result) VALUES
  ('AS12816 (antibody, V domains shown, Humanized 5C3D11 clone from a phage display library) VH: QVQLVQSGAEVKKPGASVKVSCKASGFDICDTYMHWVKQRPGQGLEWIGRIDPASGHTKYDPKFQVRATITRDTSTSTAYLELSSLRSEDTAVYYCSRSGGLPDVWGQGTTVTVSS VL: EIVLTQSPGTLSASPGERVTLSCRASSSVSYMYWYQQKPGQAPRPWIYATSNLASGVPDRFSGSGSGTDFTLTISRLEPEDFAVYYCQQWSGNPRTFGGGTKLEIK', 0.062),
  ('AS12824 (antibody, V domains shown, Humanized 5C3D11 clone from a phage display library; also called 15) VH: QVQLVQSGAEVKKPGASVKVSCKASGFDICDTYMHWVKQRPGQGLEWIGRIDPASGHTKYDPKFQVRATITTDTSTSTAYLELSSLRSEDTAVYYCARSGGLPDVWGQGTTVTVSS VL: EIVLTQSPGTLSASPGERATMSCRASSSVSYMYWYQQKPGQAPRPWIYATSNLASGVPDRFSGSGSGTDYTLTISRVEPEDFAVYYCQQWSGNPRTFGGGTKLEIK', 0.0163),
  ('AS12819 (antibody, V domains shown, Humanized 5C3D11 clone from a phage display library; also called 10) VH: QVQLVQSGAEVVKPGASVKLSCKASGFDICDTYMHWVRQRPGQGLEWMGRIDPASGHTKYDPKFQVRVTMTTDTSTSTVYLELSSLRSEDTAVYYCARSGGLPDVWGQGTTVTVSS VL: EIVLTQSPGTLSLSPGERVTMSCRASSSVSYMYWYQQKPGQAPRPWIYATSNLASGVPDRFSGSGSGTDFTLTISRVEPEDFAVYYCQQWSGNPRTFGGGTKVEIK', 0.0462),
  ('AS12823 (antibody, V domains shown, Humanized 5C3D11 clone from a phage display library; also called 14) VH: QVQLVQSGAEVKKPGASVKLSCKASGFDICDTYMHWVRQRPGQGLEWIGRIDPASGHTKYDPKFQVRATMTTDTSTSTVYLELSSLRSEDTAVYYCARSGGLPDVWGQGTTVTVSS VL: EIVLTQSPGTLSLSPGERATMSCRASSSVSYMYWYQQKPGQAPRPWIYATSNLASGIPDRFSGSGSGTDFTLTISRVEPEDFAVYYCQQWSGNPRTFGGGTKLEIK', 0.0424),
  ('AS12825 (antibody, V domains shown, Humanized 5C3D11 clone from a phage display library; also called 16) VH: QVQLVQSGAEVKKPGASVKVSCKASGFDICDTYMHWVKQAPGQGLEWMGRIDPASGHTKYDPKFQVRATMTTDTSTSTAYLELSSLRSEDTAVYYCSRSGGLPDVWGQGTTVTVSS VL: EIVLTQSPGTLSASPGERVTMSCRASSSVSYMYWYQQKPGQAPRLLIYATSNLASGVPDRFSGSGSGTDFTLTISRVEPEDFAVYYCQQWSGNPRTFGGGTKLEIK', 0.105);
